Assay: BSK_KF3CT_SRB: Viability Assessment in the BioMAP Diversity Plus: KF3CT Assay (AID 2283069);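 further: total protein by sulforhodamine B staining as a cytotoxicity measure; read 24 h after compound addition; fitted for both signal gain and loss against DMSO baseline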
Conditions: primary human keratinocytes with fibroblasts
Activity calls are given as the source filed them. How the source made its calls: active means hit-call score of the fitted dose curve at least 0.9, where 1 is the maximum; inactive means score below 0.9.
Outcomes you can answer with include only these: active, inactive

Could you please tell me the result logged for `NC(=O)C(F)(F)C(F)(F)C(F)(F)C(F)(F)C(N)=O` in this assay?
inactive

Could you please tell me the result logged for `CO[Si](C)(CCC(F)(F)C(F)(F)C(F)(F)C(F)(F)C(F)(F)C(F)(F)F)OC` in this assay?
inactive

Could you please tell me the result logged for `FC(F)(F)C(F)(F)C(F)(F)C(F)(F)C(F)(F)C(F)(F)CC[Si](Cl)(Cl)Cl` in this assay?
inactive

Could you please tell me the result logged for `OC(O)C(F)(F)C(F)(F)F` in this assay?
inactive

Could you please tell me the result logged for `Cc1ccc(S(=O)(=O)C(I)I)cc1` in this assay?
active

Could you please tell me the result logged for `OCCCCC(F)(F)C(F)(F)C(F)(F)C(F)(F)F` in this assay?
inactive

Could you please tell me the result logged for `O=C(Cl)C(F)(F)C(F)(F)C(F)(F)C(F)(F)C(F)(F)C(F)(F)C(F)(F)F` in this assay?
inactive

Could you please tell me the result logged for CC(C)CCCC(C)CCO (stereo unspecified) in this assay?
active

Could you please tell me the result logged for `Nc1cc([N+](=O)[O-])cc(Cl)c1O` in this assay?
inactive

Could you please tell me the result logged for `CCN(CC)c1ccc2c(c1)Oc1cc(N(CC)CC)ccc1C21OC(=O)c2ccccc21` in this assay?
inactive

Could you please tell me the result logged for COC(F)(C(F)F)C(F)(F)F (stereo unspecified) in this assay?
inactive

Could you please tell me the result logged for `O=C1c2c(O)ccc(Nc3ccc(CCO)cc3)c2C(=O)c2c([N+](=O)[O-])ccc(O)c21` in this assay?
inactive

Could you please tell me the result logged for `O=C(Cl)C(F)(F)C(F)(F)C(F)(F)C(F)(F)C(F)(F)C(F)(F)F` in this assay?
inactive

Could you please tell me the result logged for `Cc1cc(O)c(C(C)(C)C)cc1C(C)(C)C` in this assay?
active

Could you please tell me the result logged for `Cc1ccc(O)c(-n2nc3ccccc3n2)c1` in this assay?
inactive

Could you please tell me the result logged for OCC(O)CC(F)(F)C(F)(F)C(F)(F)C(F)(F)C(F)(F)C(F)(F)C(F)(F)C(F)(F)F (stereo unspecified) in this assay?
inactive

Could you please tell me the result logged for `NC(O)(C(F)(F)F)C(F)(F)F` in this assay?
inactive

Could you please tell me the result logged for `CCN(CC)c1ccc(C=O)c(O)c1` in this assay?
inactive

Could you please tell me the result logged for `OCC(F)(F)C(F)(F)C(F)(F)CO` in this assay?
inactive

Could you please tell me the result logged for `FC(F)(F)C(F)(F)C(F)(F)C(F)(F)C(F)(F)C(F)(F)C(F)(F)CCI` in this assay?
inactive

Could you please tell me the result logged for `Cc1cnccn1` in this assay?
inactive
